Values were extracted from patent US20240309043A1.

- System: recombinant human 17β-HSD2 (Homo sapiens)
- Construct: made in house; host or cells: Sd9 (Sf9) insect cells, baculovirus (Bac to Bac Expression System)
- Sequence (P37059 whole entry): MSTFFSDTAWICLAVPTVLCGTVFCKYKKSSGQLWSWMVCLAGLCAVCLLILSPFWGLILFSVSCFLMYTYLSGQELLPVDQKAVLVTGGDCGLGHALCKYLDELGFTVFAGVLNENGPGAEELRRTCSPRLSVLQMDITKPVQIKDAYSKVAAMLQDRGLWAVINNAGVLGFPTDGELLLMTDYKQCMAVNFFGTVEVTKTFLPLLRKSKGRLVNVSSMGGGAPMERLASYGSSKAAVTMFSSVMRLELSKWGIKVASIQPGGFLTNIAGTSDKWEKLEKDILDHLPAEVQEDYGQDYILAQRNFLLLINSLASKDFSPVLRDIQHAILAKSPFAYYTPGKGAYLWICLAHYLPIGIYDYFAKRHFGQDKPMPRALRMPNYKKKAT
- Experimental Details: Inhibition of recombinant human 17β-HSD2
- Type: biochemical
- Test Conditions: inhibitor 1 μM; 50 nM estradiol, 1 mM NADH, 30 min RT
Measurement Label: inhibition at 1 µM
Remember to follow the number with its unit.

Record request: inhibition at 1 µM value, item C[C@]12CCC3c4cccc(F)c4CCC3C1[C@H](CCC(=O)Nc1cc(F)ccn1)C/C2=N\O (stereo partly shown)
6%

Would you kindly share the measured inhibition at 1 µM for C[C@]12CCC3c4ccc(Cl)cc4CCC3C1[C@H](CCC(=O)Nc1ccc(C#N)cn1)C/C2=N\O (stereo partly shown) ?
7%

# get_value(readout='inhibition at 1 µM', item= Cc1cnc(NC(=O)CC[C@@H]2C/C(=N\O)[C@@]3(C)CCC4c5ccccc5CCC4C23)o1 (stereo partly shown) )
5%

inhibition at 1 µM for C[C@]12CCC3c4ccccc4CCC3C1[C@H](CCC(=O)Nc1ccc(F)cn1)C/C2=N\O (stereo partly shown) ?
0%
